Source of measurements: PubChem BioAssay (NCATS)

Form field: activity, negative = inhibition (one value per entry).
PROTOCOL NOTES: qHTS profiling for inhibitors of Plasmodium falciparum proliferation (AID 504749);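 also: 0% = DMSO vehicle and full inhibition = artemisinin control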
CONDITION PARAMETERS: P. falciparum in erythrocytes, SYBR Green DNA, 72 h; at 28.7 µM (top of the series); parasite line B
Inconclusive results are not listed.
Note: unit % is implicit; provide only the numeric part.

Answered cases to consult:
CCC(=O)OC1(c2ccccc2)CCN(C)CC1C (stereo unspecified) : 2.19
C=CC[N+]1(C)CCC23c4c5ccc(O)c4O[C@H]2C(=O)CC[C@@]3(O)C1C5 (stereo partly specified) : 14.5
COc1ccc2c3c1O[C@H]1[C@@H](O)C=C[C@H]4C(C2)NCCC341 (stereo partly specified) : -2.8
O=C1CC2OCC=C3CN4CC[C@]56c7ccccc7N1C5C2[C@H]3C[C@H]46 (stereo partly specified) : -18.7
Nc1nc(O)c(-c2ccccc2)o1 : 6.38
OC[C@@H](O)[C@H]1O[C@@H]2OC(C(Cl)(Cl)Cl)O[C@H]2[C@H]1O (stereo partly specified) : 19.1
C=C1CC2C(CC[C@]3(C)C(=O)CCC23)[C@]2(C)C=CC(=O)C=C12 (stereo partly specified) : 0.0393
Cc1cc(C)cc(C(=O)OC2CC3CCC(C2)N3C)c1 (stereo unspecified) : 8.93
COC(=O)C1C(OC(=O)c2ccccc2)CC2CCC1N2C (stereo unspecified) : -3.4
C=C1Nc2ccccc2C(=O)N1c1ccccc1C : -23.4

Shifting focus to the molecule that follows.
Recall and state the measured activity, negative = inhibition for [S]=[Sb][S][Sb]=[S] .
1.29
